Taken from ChEMBL document CHEMBL1149117.

Please respond with reported Ki for every item in the list.
molecular target: Sodium-dependent dopamine transporter (Rattus norvegicus)
One number for each entry, in nM.

Batch of 3 molecules: report Ki for each.
1. Cc1ccc(C2CC3CCC([C@H]2COC(c2ccc(F)cc2)c2ccc(F)cc2)N3C)cc1 (some centres undefined)
2. Cc1ccc(C2CC3CCC([C@H]2COC(c2ccccc2)c2ccc(Cl)cc2)N3C)cc1 (some centres undefined)
3. Cc1ccc(C2CC3CCC([C@@H]2COC(c2ccccc2)c2ccccc2)N3C)cc1 (some centres undefined)

62
80
455

Batch of 5 molecules: report Ki for each.
1. Cc1ccc(C2CC3CCC([C@@H]2COC(c2ccccc2)c2ccc(Cl)cc2)N3C)cc1 (some centres undefined)
2. CN1C2CCC1[C@H](COC(c1ccccc1)c1ccccc1)C(c1ccc(Cl)cc1)C2 (some centres undefined)
3. Cc1ccc(C2CC3CCC([C@@H]2COC(c2ccc(F)cc2)c2ccc(F)cc2)N3C)cc1 (some centres undefined)
4. CN1C2CCC1[C@@H](COC(c1ccccc1)c1ccccc1)C(c1ccc(Cl)cc1)C2 (some centres undefined)
5. CN1C2CCC1C(CCCOC(c1ccccc1)c1ccccc1)C(c1ccccc1)C2 (centres undefined)

1. 937
2. 478
3. 690
4. 52
5. 139

Provide only the value of recorded Ki for CN1C2CCC1C(CCCOC(c1ccc(F)cc1)c1ccc(F)cc1)C(c1ccccc1)C2 (centres undefined)
60

----------
Below are compounds with their log10(Ki) as measured on UniProt Q9WTR4.
Hello, just confirming the data are log10 of Ki with units of nM.

Worked cases, log10(Ki) given:
Provide only the value of recorded log10(Ki) for CN1C2CCC1[C@H](COC(c1ccc(F)cc1)c1ccc(F)cc1)C(c1ccc(Cl)cc1)C2 (stereo partly drawn)
4.72

Provide only the value of recorded log10(Ki) for CN1C2CCC1[C@@H](COC(c1ccccc1)c1ccc(Cl)cc1)C(c1ccc(Cl)cc1)C2 (stereo partly drawn)
3.31

Provide only the value of recorded log10(Ki) for Cc1ccc(C2CC3CCC([C@H]2COC(c2ccc(F)cc2)c2ccc(F)cc2)N3C)cc1 (stereo partly drawn)
3.26

Provide only the value of recorded log10(Ki) for CN1C2CCC1[C@@H](COC(c1ccc(F)cc1)c1ccc(F)cc1)C(c1ccc(Cl)cc1)C2 (stereo partly drawn)
3.46

Provide only the value of recorded log10(Ki) for CN1C2CCC1[C@@H](COC(c1ccccc1)c1ccccc1)C(c1ccc(Cl)cc1)C2 (stereo partly drawn)
3.08

Batch of 3 compounds: report log10(Ki) for each.
1. Cc1ccc(C2CC3CCC([C@H]2COC(c2ccccc2)c2ccc(Cl)cc2)N3C)cc1 (stereo partly drawn)
2. CN1C2CCC1C(CCCOC(c1ccccc1)c1ccccc1)C(c1ccccc1)C2 (stereo not drawn)
3. Cc1ccc(C2CC3CCC([C@@H]2COC(c2ccc(F)cc2)c2ccc(F)cc2)N3C)cc1 (stereo partly drawn)

[3.64, 2.32, 4.20]

----------
target: Norepinephrine transporter (Rattus norvegicus, UniProt Q9WTR4)
Sequence (Q9WTR4 whole entry): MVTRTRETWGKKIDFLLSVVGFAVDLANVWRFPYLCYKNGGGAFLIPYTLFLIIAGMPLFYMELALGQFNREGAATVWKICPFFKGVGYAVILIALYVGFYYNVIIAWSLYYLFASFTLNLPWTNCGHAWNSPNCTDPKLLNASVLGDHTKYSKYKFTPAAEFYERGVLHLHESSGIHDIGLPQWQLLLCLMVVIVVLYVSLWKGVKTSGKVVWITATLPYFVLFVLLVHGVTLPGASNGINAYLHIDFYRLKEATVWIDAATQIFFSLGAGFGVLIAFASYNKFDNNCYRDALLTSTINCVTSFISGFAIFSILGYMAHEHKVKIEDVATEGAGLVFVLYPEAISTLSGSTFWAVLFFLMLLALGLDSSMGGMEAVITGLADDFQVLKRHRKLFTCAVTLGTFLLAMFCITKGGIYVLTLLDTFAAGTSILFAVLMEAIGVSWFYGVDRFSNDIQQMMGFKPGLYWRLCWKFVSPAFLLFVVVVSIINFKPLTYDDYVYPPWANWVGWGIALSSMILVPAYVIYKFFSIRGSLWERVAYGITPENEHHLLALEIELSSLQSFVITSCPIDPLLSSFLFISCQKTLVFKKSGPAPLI
pKi: −log10 of the molar value.
# if value of pKi reaches 5, tag class 1; if it stays below, tag class 0

Below are worked cases with known answers.
Textbook exercise: given the entry CN1C2CCC1[C@H](COC(c1ccccc1)c1ccc(Cl)cc1)C(c1ccc(Cl)cc1)C2 (stereo not given in full) , state whether its pKi is greater than or equal to 5.
class 1

Textbook exercise: given the entry Cc1ccc(C2CC3CCC([C@@H]2COC(c2ccccc2)c2ccccc2)N3C)cc1 (stereo not given in full) , state whether its pKi is greater than or equal to 5.
class 1

Textbook exercise: given the entry Cc1ccc(C2CC3CCC([C@@H]2COC(c2ccccc2)c2ccc(Cl)cc2)N3C)cc1 (stereo not given in full) , state whether its pKi is greater than or equal to 5.
class 0

New cases:
Textbook exercise: given the entry Cc1ccc(C2CC3CCC([C@H]2COC(c2ccccc2)c2ccccc2)N3C)cc1 (stereo not given in full) , state whether its pKi is greater than or equal to 5.
class 1

Textbook exercise: given the entry CN1C2CCC1[C@H](COC(c1ccccc1)c1ccccc1)C(c1ccc(Cl)cc1)C2 (stereo not given in full) , state whether its pKi is greater than or equal to 5.
class 1

----------
biological target: Sodium-dependent dopamine transporter (Rattus norvegicus, UniProt P23977)
Sequence (P23977 whole entry): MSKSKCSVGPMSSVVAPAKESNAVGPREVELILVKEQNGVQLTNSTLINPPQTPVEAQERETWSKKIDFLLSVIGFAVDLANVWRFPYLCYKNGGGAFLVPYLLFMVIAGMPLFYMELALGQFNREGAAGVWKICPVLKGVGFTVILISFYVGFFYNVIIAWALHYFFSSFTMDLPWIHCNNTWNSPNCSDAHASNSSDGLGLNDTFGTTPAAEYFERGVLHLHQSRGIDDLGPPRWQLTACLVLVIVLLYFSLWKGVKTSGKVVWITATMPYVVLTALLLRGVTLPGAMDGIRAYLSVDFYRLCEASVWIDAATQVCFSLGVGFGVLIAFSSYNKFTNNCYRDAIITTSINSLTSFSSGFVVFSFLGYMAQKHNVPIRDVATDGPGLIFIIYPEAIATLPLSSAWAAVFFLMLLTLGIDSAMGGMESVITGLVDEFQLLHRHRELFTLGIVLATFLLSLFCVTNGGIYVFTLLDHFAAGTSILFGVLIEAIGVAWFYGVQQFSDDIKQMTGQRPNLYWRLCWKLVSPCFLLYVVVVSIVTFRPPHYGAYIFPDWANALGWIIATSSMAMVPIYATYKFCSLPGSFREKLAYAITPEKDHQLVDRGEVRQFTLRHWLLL
Please respond with reported log10 Ki for every item in the list.
Hello, just confirming the data are log10 of Ki with units of nM.

Name the recorded log10 Ki of CN1C2CCC1[C@H](COC(c1ccc(F)cc1)c1ccc(F)cc1)C(c1ccc(Cl)cc1)C2 (some centres undefined) , assay system Sodium-dependent dopamine transporter (Rattus norvegicus, UniProt P23977).
2.40

Name the recorded log10 Ki of CN1C2CCC1[C@@H](COC(c1ccccc1)c1ccc(Cl)cc1)C(c1ccc(F)cc1)C2 (some centres undefined) , assay system Sodium-dependent dopamine transporter (Rattus norvegicus, UniProt P23977).
2.05

Name the recorded log10 Ki of CN1C2CCC1C(CCCOC(c1ccccc1)c1ccc(Cl)cc1)C(c1ccccc1)C2 (centres undefined) , assay system Sodium-dependent dopamine transporter (Rattus norvegicus, UniProt P23977).
2.42

Name the recorded log10 Ki of CN1C2CCC1[C@@H](COC(c1ccccc1)c1ccc(Cl)cc1)C(c1ccc(Cl)cc1)C2 (some centres undefined) , assay system Sodium-dependent dopamine transporter (Rattus norvegicus, UniProt P23977).
1.88

Name the recorded log10 Ki of Cc1ccc(C2CC3CCC([C@H]2COC(c2ccccc2)c2ccccc2)N3C)cc1 (some centres undefined) , assay system Sodium-dependent dopamine transporter (Rattus norvegicus, UniProt P23977).
1.53

Batch of 4 molecules: report log10 Ki for each.
1. CN1C2CCC1[C@@H](COC(c1ccc(F)cc1)c1ccc(F)cc1)C(c1ccc(Cl)cc1)C2 (some centres undefined)
2. CN1C2CCC1[C@@H](COC(c1ccc(F)cc1)c1ccc(F)cc1)C(c1ccc(F)cc1)C2 (some centres undefined)
3. CN1C2CCC1[C@H](COC(c1ccccc1)c1ccc(Cl)cc1)C(c1ccc(Cl)cc1)C2 (some centres undefined)
4. CN1C2CCC1[C@@H](COC(c1ccccc1)c1ccccc1)C(c1ccc(F)cc1)C2 (some centres undefined)

1. 2.00
2. 1.80
3. 2.74
4. 1.69

----------
Below are compounds with their pKi as measured on Muscarinic acetylcholine receptor M1 (Rattus norvegicus).
Numbers only, as −log10 of the molar value.

Provide only the value of recorded pKi for CN1C2CCC1[C@H](COC(c1ccc(F)cc1)c1ccc(F)cc1)C(c1ccc(Cl)cc1)C2 (some centres undefined)
5.00

Batch of 7 compounds: report pKi for each.
1. Cc1ccc(C2CC3CCC([C@@H]2COC(c2ccccc2)c2ccccc2)N3C)cc1 (some centres undefined)
2. CN1C2CCC1C(CCCOC(c1ccccc1)c1ccc(Cl)cc1)C(c1ccccc1)C2 (centres undefined)
3. Cc1ccc(C2CC3CCC([C@H]2COC(c2ccccc2)c2ccc(Cl)cc2)N3C)cc1 (some centres undefined)
4. CN1C2CCC1C(CCCOC(c1ccccc1)c1ccccc1)C(c1ccccc1)C2 (centres undefined)
5. CN1C2CCC1[C@H](COC(c1ccccc1)c1ccc(Cl)cc1)C(c1ccc(Cl)cc1)C2 (some centres undefined)
6. CN1C2CCC1[C@@H](COC(c1ccccc1)c1ccccc1)C(c1ccc(Cl)cc1)C2 (some centres undefined)
7. CN1C2CCC1[C@H](COC(c1ccccc1)c1ccccc1)C(c1ccc(Cl)cc1)C2 (some centres undefined)

1. 4.90
2. 4.61
3. 4.50
4. 5.10
5. 5.02
6. 4.96
7. 4.94

----------
Below are molecules with their pKi as measured on Sodium-dependent serotonin transporter (Rattus norvegicus, UniProt P31652).
Sequence (P31652 whole entry): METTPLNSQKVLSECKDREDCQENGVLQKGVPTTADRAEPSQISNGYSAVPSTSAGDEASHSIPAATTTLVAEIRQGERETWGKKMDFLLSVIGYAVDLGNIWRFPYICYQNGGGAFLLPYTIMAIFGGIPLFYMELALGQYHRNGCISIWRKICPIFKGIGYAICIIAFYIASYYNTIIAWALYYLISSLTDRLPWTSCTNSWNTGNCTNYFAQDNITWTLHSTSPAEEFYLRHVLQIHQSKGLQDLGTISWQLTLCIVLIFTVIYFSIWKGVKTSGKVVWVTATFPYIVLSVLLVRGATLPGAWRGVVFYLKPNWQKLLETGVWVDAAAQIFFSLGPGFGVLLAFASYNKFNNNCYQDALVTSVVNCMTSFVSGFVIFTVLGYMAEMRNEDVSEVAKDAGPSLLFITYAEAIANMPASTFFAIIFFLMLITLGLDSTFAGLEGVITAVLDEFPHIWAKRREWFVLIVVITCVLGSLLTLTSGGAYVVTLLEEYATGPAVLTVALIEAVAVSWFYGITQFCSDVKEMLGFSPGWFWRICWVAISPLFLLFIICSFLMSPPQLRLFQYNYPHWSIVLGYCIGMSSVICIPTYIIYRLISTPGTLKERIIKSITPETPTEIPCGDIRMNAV
Give bare numbers, as −log10 of the molar value.

Worked cases, pKi given:
Provide only the value of recorded pKi for Cc1ccc(C2CC3CCC([C@@H]2COC(c2ccccc2)c2ccccc2)N3C)cc1 (some centres undefined)
6.28

Provide only the value of recorded pKi for CN1C2CCC1[C@H](COC(c1ccccc1)c1ccc(Cl)cc1)C(c1ccc(Cl)cc1)C2 (some centres undefined)
5.89

Provide only the value of recorded pKi for Cc1ccc(C2CC3CCC([C@H]2COC(c2ccc(F)cc2)c2ccc(F)cc2)N3C)cc1 (some centres undefined)
6.63

Provide only the value of recorded pKi for Cc1ccc(C2CC3CCC([C@@H]2COC(c2ccc(F)cc2)c2ccc(F)cc2)N3C)cc1 (some centres undefined)
6.10

Provide only the value of recorded pKi for Cc1ccc(C2CC3CCC([C@H]2COC(c2ccccc2)c2ccc(Cl)cc2)N3C)cc1 (some centres undefined)
6.35

Batch of 3 molecules: report pKi for each.
1. CN1C2CCC1C(CCCOC(c1ccccc1)c1ccc(Cl)cc1)C(c1ccccc1)C2 (centres undefined)
2. Cc1ccc(C2CC3CCC([C@H]2COC(c2ccccc2)c2ccccc2)N3C)cc1 (some centres undefined)
3. CN1C2CCC1[C@H](COC(c1ccccc1)c1ccccc1)C(c1ccc(Cl)cc1)C2 (some centres undefined)

1: 7.35; 2: 6.92; 3: 6.39

----------
Please respond with reported pKi for every item in the list.
target: Muscarinic acetylcholine receptor M1 (Rattus norvegicus, UniProt P08482)
Sequence (P08482 whole entry): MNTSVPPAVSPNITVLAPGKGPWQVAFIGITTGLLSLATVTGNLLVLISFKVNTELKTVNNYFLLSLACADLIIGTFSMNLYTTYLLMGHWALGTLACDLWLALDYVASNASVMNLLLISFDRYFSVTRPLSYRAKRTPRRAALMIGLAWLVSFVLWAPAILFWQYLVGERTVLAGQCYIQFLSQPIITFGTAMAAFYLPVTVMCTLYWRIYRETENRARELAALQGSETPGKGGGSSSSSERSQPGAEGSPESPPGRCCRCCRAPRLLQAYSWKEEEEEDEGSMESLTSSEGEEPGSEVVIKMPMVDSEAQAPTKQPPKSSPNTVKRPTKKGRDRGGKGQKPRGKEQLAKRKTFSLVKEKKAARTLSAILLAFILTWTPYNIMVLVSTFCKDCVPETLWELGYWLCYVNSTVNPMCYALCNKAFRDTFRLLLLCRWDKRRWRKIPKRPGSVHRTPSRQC
Numbers only, as −log10 of the molar value.

Provide only the value of recorded pKi for Cc1ccc(C2CC3CCC([C@@H]2COC(c2ccccc2)c2ccc(Cl)cc2)N3C)cc1 (stereo partly specified)
4.74

Provide only the value of recorded pKi for CN1C2CCC1[C@@H](COC(c1ccccc1)c1ccc(Cl)cc1)C(c1ccc(Cl)cc1)C2 (stereo partly specified)
4.40

Provide only the value of recorded pKi for Cc1ccc(C2CC3CCC([C@H]2COC(c2ccccc2)c2ccccc2)N3C)cc1 (stereo partly specified)
4.97

Provide only the value of recorded pKi for CN1C2CCC1[C@@H](COC(c1ccc(F)cc1)c1ccc(F)cc1)C(c1ccc(Cl)cc1)C2 (stereo partly specified)
4.79

Provide only the value of recorded pKi for Cc1ccc(C2CC3CCC([C@@H]2COC(c2ccc(F)cc2)c2ccc(F)cc2)N3C)cc1 (stereo partly specified)
5.01

Proceed to the following item.
Provide only the value of recorded pKi for Cc1ccc(C2CC3CCC([C@H]2COC(c2ccc(F)cc2)c2ccc(F)cc2)N3C)cc1 (stereo partly specified)
4.81
